type: physicochemical; details: category 1/0
Listing of entries alongside the reported Tht category (> 1.5 to blank = +).

substance | Tht category (> 1.5 to blank = +)
CKIKIQINMW [TM86] | 0 (ThT-inactive (N-Fold <2))
CKIKQIINMWQ [MG5a / CK17] | 1 (ThT. Cat is 1, if Rel. ThT >2)
CSISIQINM [TM145] | 1 (ThT. Cat is 1, if Rel. ThT >2)
CKFKFQF [BL4] | 1 (ThT. Cat is 1, if Rel. ThT >2)
CRFRFQF [CN10] | 1 (ThT. Cat is 1, if Rel. ThT >2)
KFKFQFNMWQ [JG4] | 1 (ThT. Cat is 1, if Rel. ThT >2)
QCKFKQFFNM [CK11] | 1 (ThT. Cat is 1, if Rel. ThT >2)
KLKLQLL [TG4 / (KM2)] | 0 (ThT-inactive (N-Fold <2))
RGDKIKIQIC [MG7/CN1] | 1 (ThT. Cat is 1, if Rel. ThT >2)
RGDKIKIQINMC [psis29] | 0 (ThT-inactive (N-Fold <2))
KFKFQFFF [TG12] | 1 (ThT. Cat is 1, if Rel. ThT >2)
CKWKWQW [KB4] | 0 (ThT-inactive (N-Fold <2))
CKIKIQINMWQ [MG1] | 1 (ThT. Cat is 1, if Rel. ThT >2)
QCKIKIQINM [CK2] | 1 (ThT. Cat is 1, if Rel. ThT >2)
KFKFQFNM [BL6a] | 0 (ThT-inactive (N-Fold <2))
RGDKIKIQI [MG14] | 1 (ThT. Cat is 1, if Rel. ThT >2)
MKFKFQF [DF5 / CK16] | 0 (ThT-inactive (N-Fold <2))

---

assay type: physicochemical; design: key: 1 = fibrils present; 0 non-fibrillar structures; conditions: TEM, 1 mg/mL, uranyl acetate stain, qualitative
Listing of entries alongside the reported Fibril / Fibril Formation.

substance | Fibril / Fibril Formation
SISISRRI | 0
KVKVKVQV | 0
KFKFKFQF | 1
CKIKIQINMW | 1
CKIKIQINMWQ | 1
KFKFQF | 0
CKIKIWIW | 1
RGDKIKIQIC | 1
MDQMDQMDQMDQMDQ | 0
KAKAQANM | 0
CEFEFQFNMWQ | 1
QCKIKQIINMWQ [reference compound] | 1
CKAKAQA | 0
FKFDKFKFDK | 0
NMWQKIKQII | 0
CRLRVGVS | 0
CKIKIQINM | 1
QCKFKQFFNMWQ | 1
CKFKFQFNMW | 1
KIKIQIMWNQ | 1
RVWWNF | 0
QCKIKQIINM | 1
KWKWQW | 0
KFKQFFNMWQ | 0
KIKIQINAWQ | 1
KVKGVGK | 0
CKAKAQANM | 0
KFKFQFNM | 1
KKFQKKFQ | 0
KLKLQLL | 1
HGEHGEHGE | 0
KVWWNF | 0
MKVIFLKDVKG [reference compound] | 1
CKIKIQIII | 1
NMWQKAKAQA | 1
GNNQQNY [reference compound] | 0
QCKIKIQI | 1
KLKQLL | 0
CKFKFQFNMWQ | 1
CRFRFHFH | 1
EIEIQINM | 1
IFQINS [reference compound] | 1

---

Listing of entries alongside the reported Tht category (> 2 to blank = +).
assay type: physicochemical; settings: FigS12 panel A
propertyLabel: Tht category (> 2 to blank = +)

substance | propertyLabel | result
SISISRRI | Tht category (> 2 to blank = +) | 0 (ThT-inactive (N-Fold <2))
HGEHGE | Tht category (> 2 to blank = +) | 0 (ThT-inactive (N-Fold <2))
HGDKCHGDKC | Tht category (> 2 to blank = +) | 0 (ThT-inactive (N-Fold <2))
MKFKFQF | Tht category (> 2 to blank = +) | 0 (ThT-inactive (N-Fold <2))
RGDKIKIQI | Tht category (> 2 to blank = +) | 1 (ThT. Cat is 1, if Rel. ThT >2)
HGEHGEHGE | Tht category (> 2 to blank = +) | 0 (ThT-inactive (N-Fold <2))
KVKGVGK | Tht category (> 2 to blank = +) | 0 (ThT-inactive (N-Fold <2))
KFKQFFNMWQ | Tht category (> 2 to blank = +) | 0 (ThT-inactive (N-Fold <2))
HLHLPLL | Tht category (> 2 to blank = +) | 0 (ThT-inactive (N-Fold <2))
KFKFQF | Tht category (> 2 to blank = +) | 0 (ThT-inactive (N-Fold <2))
CKFKQFF | Tht category (> 2 to blank = +) | 0 (ThT-inactive (N-Fold <2))
KLKLQLL | Tht category (> 2 to blank = +) | 0 (ThT-inactive (N-Fold <2))
KKFQKKFQ | Tht category (> 2 to blank = +) | 0 (ThT-inactive (N-Fold <2))
QCKAKAQA | Tht category (> 2 to blank = +) | 0 (ThT-inactive (N-Fold <2))
KIKIQII | Tht category (> 2 to blank = +) | 0 (ThT-inactive (N-Fold <2))
KVKVKVQV | Tht category (> 2 to blank = +) | 1 (ThT. Cat is 1, if Rel. ThT >2)
KIKQII | Tht category (> 2 to blank = +) | 0 (ThT-inactive (N-Fold <2))
KLKQLL | Tht category (> 2 to blank = +) | 0 (ThT-inactive (N-Fold <2))
KAKAQANMWQ | Tht category (> 2 to blank = +) | 0 (ThT-inactive (N-Fold <2))
EIEIQINM | Tht category (> 2 to blank = +) | 0 (ThT-inactive (N-Fold <2))
CKYKYQY | Tht category (> 2 to blank = +) | 1 (ThT. Cat is 1, if Rel. ThT >2)
CKAKAQANM | Tht category (> 2 to blank = +) | 0 (ThT-inactive (N-Fold <2))
KAKAQANM | Tht category (> 2 to blank = +) | 0 (ThT-inactive (N-Fold <2))
EIEIEIEI | Tht category (> 2 to blank = +) | 0 (ThT-inactive (N-Fold <2))
CSISIQI | Tht category (> 2 to blank = +) | 1 (ThT. Cat is 1, if Rel. ThT >2)
CEIEIQINM | Tht category (> 2 to blank = +) | 1 (ThT. Cat is 1, if Rel. ThT >2)
QCKFKQFF | Tht category (> 2 to blank = +) | 1 (ThT. Cat is 1, if Rel. ThT >2)
KYKGAIIGNIK | Tht category (> 2 to blank = +) | 0 (ThT-inactive (N-Fold <2))
KIKIKIKI | Tht category (> 2 to blank = +) | 1 (ThT. Cat is 1, if Rel. ThT >2)
FKFDKFKFDK | Tht category (> 2 to blank = +) | 0 (ThT-inactive (N-Fold <2))
KFKFEFEF | Tht category (> 2 to blank = +) | 1 (ThT. Cat is 1, if Rel. ThT >2)
CEIEIQI | Tht category (> 2 to blank = +) | 1 (ThT. Cat is 1, if Rel. ThT >2)
EFEFQF | Tht category (> 2 to blank = +) | 1 (ThT. Cat is 1, if Rel. ThT >2)
QCKAKAQANM | Tht category (> 2 to blank = +) | 0 (ThT-inactive (N-Fold <2))
RPRGLLLGNLR | Tht category (> 2 to blank = +) | 0 (ThT-inactive (N-Fold <2))
EIKIQINM | Tht category (> 2 to blank = +) | 1 (ThT. Cat is 1, if Rel. ThT >2)
KNERIKNERI | Tht category (> 2 to blank = +) | 0 (ThT-inactive (N-Fold <2))
KIEIQINM | Tht category (> 2 to blank = +) | 0 (ThT-inactive (N-Fold <2))
KIKIKIQI | Tht category (> 2 to blank = +) | 1 (ThT. Cat is 1, if Rel. ThT >2)
RLRLTLC | Tht category (> 2 to blank = +) | 0 (ThT-inactive (N-Fold <2))
HHHHEIEIEIEI | Tht category (> 2 to blank = +) | 1 (ThT. Cat is 1, if Rel. ThT >2)
MDQMDQMDQMDQMDQ | Tht category (> 2 to blank = +) | 0 (ThT-inactive (N-Fold <2))
KYKYQY | Tht category (> 2 to blank = +) | 1 (ThT. Cat is 1, if Rel. ThT >2)
FDPFDPFDP | Tht category (> 2 to blank = +) | 0 (ThT-inactive (N-Fold <2))
CKAKAQA | Tht category (> 2 to blank = +) | 0 (ThT-inactive (N-Fold <2))

Measured values drawn from paper PMC10447463 for this set.
